Would you kindly list DSC after PDSC Peak Max for each of these compounds?
assay: Photo-DSC/DSC cationic curing activity of PAGs in Epon 828; details: Epon 828; DSC scan after light exposure
One number for each entry, in °C.

Recorded DSC after PDSC Peak Max, per entry:
compound: CC(C)(C)c1ccc([I+]c2ccc(C(C)(C)C)cc2)cc1.CC(C)(C)c1ccc([I+]c2ccc(C(C)(C)C)cc2)cc1.O=S(=O)([O-])C(F)(F)C(F)(F)C(F)(F)S(=O)(=O)[O-] [PAG1, [(p-(CH3)3C—C6H4)2I^+]2-O3S(CF2)3SO3—]
resultType: DSC after PDSC Peak Max
obsValue: 192
//
compound: CC(C)(C)c1ccc([I+]c2ccc(C(C)(C)C)cc2)cc1.O=S(=O)([O-])C(F)(F)C(F)(F)C(F)(F)C(F)(F)C(F)(F)C(F)(F)C(F)(F)C(F)(F)F [DTBPI-PFOS, reference compound]
resultType: DSC after PDSC Peak Max
obsValue: 197
//
compound: CC(C)(C)c1ccc([I+]c2ccc(C(C)(C)C)cc2)cc1.O=S(=O)([O-])C(F)(F)C(F)(F)C(F)(F)C(F)(F)F [DTBPI-ONf, reference compound]
resultType: DSC after PDSC Peak Max
obsValue: 190

Here's the next entry for you.
DSC after PDSC Peak Max for CC(C)(C)c1ccc([I+]c2ccc(C(C)(C)C)cc2)cc1.CC(C)(C)c1ccc([I+]c2ccc(C(C)(C)C)cc2)cc1.O=S(=O)([O-])C(F)(F)C(F)(F)C(F)(F)C(F)(F)S(=O)(=O)[O-] [PAG2, [(p-(CH3)3C—C6H4)2I^+]2-O3S(CF2)4SO3—] ?
194
